# tested_target: DNA repair and recombination protein RAD54-like (Homo sapiens) (UniProt Q92698)
# Sequence (Q92698 whole entry, looked up): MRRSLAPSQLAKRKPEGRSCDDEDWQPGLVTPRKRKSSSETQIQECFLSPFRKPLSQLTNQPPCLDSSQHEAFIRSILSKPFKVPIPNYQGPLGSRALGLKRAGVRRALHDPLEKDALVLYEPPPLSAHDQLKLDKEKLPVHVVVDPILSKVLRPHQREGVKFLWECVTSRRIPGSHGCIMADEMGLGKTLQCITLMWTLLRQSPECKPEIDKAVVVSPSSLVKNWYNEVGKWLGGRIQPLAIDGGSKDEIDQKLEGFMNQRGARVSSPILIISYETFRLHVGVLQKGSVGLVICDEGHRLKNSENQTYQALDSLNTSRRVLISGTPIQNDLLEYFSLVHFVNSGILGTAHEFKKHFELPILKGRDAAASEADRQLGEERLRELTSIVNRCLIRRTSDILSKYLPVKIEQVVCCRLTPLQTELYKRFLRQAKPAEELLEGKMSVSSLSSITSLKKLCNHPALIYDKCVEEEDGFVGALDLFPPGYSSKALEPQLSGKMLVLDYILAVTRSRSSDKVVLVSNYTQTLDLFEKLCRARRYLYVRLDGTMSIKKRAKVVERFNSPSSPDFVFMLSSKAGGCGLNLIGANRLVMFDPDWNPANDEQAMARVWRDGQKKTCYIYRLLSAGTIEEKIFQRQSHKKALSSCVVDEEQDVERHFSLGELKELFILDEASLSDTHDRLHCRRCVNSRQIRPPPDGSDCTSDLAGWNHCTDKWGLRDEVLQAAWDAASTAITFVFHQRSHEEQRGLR
# assay_details: inhibitors of human RAD54 branch migration, primary screen, biochemical, fluorescence, single point (AID 602329);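 further: inhibitors cause a drop in the FAM fluorescence signal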
# condition_context: RAD54 Holliday junction branch migration, FAM/BHQ fluorescence; at 10.4 µM
The whole screen tested about 360,000 compounds, of which about 510 (0.14%) were called active.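 How the source made its calls: active means mean normalized replicate activity at least 40 and at least half of replicates scoring 40 or more; inconclusive means only one of the two criteria met; inactive means mean below 40 and under half of replicates reaching 40.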 The list comes from a sample in which actives are over-represented; it also holds close analogues and randomly drawn compounds.
Labels: active, inactive

smiles_data: C[C@H](CO)N1C[C@H](C)[C@H](CN(C)C(=O)Oc2ccc3ccccc3c2)OCc2cnnn2CCCC1=O
class_label: inactive
//
smiles_data: COC(=O)[C@H]1[C@H](CO)[C@H]2Cn3c(ccc(-c4cccc(F)c4)c3=O)[C@@H]1N2Cc1ccccc1
class_label: inactive
//
smiles_data: O=C(O)[C@H]1[C@H](CO)[C@H]2Cn3c(ccc(-c4ccccc4)c3=O)[C@@H]1N2S(=O)(=O)c1ccccc1F
class_label: inactive
//
smiles_data: CN1CCN(c2cc(N3CCNCC3)ccc2[N+](=O)[O-])CC1
class_label: active
